- tested system: Rhodopsin kinase GRK1 (Homo sapiens)
- Sequence (Q15835 whole entry): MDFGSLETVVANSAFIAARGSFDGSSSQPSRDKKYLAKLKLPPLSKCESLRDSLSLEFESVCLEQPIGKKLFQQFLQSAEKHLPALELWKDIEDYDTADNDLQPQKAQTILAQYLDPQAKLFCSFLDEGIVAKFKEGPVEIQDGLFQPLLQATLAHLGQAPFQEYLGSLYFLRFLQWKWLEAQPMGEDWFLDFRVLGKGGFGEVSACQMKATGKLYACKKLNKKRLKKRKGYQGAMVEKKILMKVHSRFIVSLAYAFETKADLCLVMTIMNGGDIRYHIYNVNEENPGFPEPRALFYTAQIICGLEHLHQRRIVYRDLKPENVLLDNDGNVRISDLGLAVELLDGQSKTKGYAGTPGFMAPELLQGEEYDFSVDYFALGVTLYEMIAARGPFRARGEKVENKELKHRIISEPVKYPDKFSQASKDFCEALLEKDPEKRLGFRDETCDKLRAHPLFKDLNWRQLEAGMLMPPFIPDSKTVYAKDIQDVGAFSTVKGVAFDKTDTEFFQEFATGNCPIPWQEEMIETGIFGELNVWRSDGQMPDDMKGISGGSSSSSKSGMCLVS
test readout: IC50

Query: Give the reported IC50 for this compound. CC1=C(C(=O)Nc2ccc3[nH]ncc3c2)C(c2ccc(F)c(C(=O)NCc3c(C(F)(F)F)cccc3C(F)(F)F)c2)NC(=O)N1 (stereo not drawn)
Reply: > 100 µM

Query: Give the reported IC50 for this compound. COc1cccc(OC)c1CNC(=O)c1cc(C2NC(=O)NC(C)=C2C(=O)Nc2ccc3[nH]ncc3c2)ccc1F (stereo not drawn)
Reply: > 100 µM

Query: Give the reported IC50 for this compound. CC1=C(C(=O)Nc2ccc3[nH]ncc3c2)C(c2ccc(F)c(CC(=O)NCc3c(C)cccc3C)c2)NC(=O)N1 (stereo not drawn)
Reply: > 100 µM

Query: Give the reported IC50 for this compound. CC1=C(C(=O)Nc2ccc3[nH]ncc3c2)C(c2ccc(F)c(C(=O)NCCc3ccccn3)c2)NC(=O)N1 (stereo not drawn)
Reply: > 100 µM

Query: Give the reported IC50 for this compound. CCCn1c(CNc2cccc(C(=O)NCc3c(F)cccc3F)c2)nnc1-c1ccncn1
Reply: 9 µM

Query: Give the reported IC50 for this compound. COc1ccccc1CNC(=O)c1cc(C2NC(=O)NC(C)=C2C(=O)Nc2ccc3[nH]ncc3c2)ccc1F (stereo not drawn)
Reply: 16 µM

Query: Give the reported IC50 for this compound. CC1=C(C(=O)Nc2ccc3[nH]ncc3c2)C(c2ccc(F)c(C(=O)NCc3c(F)cccc3F)c2)NC(=O)N1 (stereo not drawn)
Reply: > 100 µM

Query: Give the reported IC50 for this compound. CC1=C(C(=O)Nc2ccc3[nH]ncc3c2)C(c2ccc(F)c(C(=O)NCc3ccccn3)c2)NC(=O)N1 (stereo not drawn)
Reply: 3.9 µM

* * *

- run description: Inhibition of PKA (unknown origin) using CREBtide as substrate by ADP-Glo kinase assay
- Parameters: species or system Homo sapiens
pIC50: −log10 of the molar value.
test readout: pIC50

Query: Give the reported pIC50 for this compound. COc1cccc(OC)c1CNC(=O)c1cc(C2NC(=O)NC(C)=C2C(=O)Nc2ccc3[nH]ncc3c2)ccc1F (stereo not drawn)
Reply: < 4.00

Query: Give the reported pIC50 for this compound. CC1=C(C(=O)Nc2ccc3[nH]ncc3c2)C(c2ccc(F)c(C(=O)NCCc3ccncc3)c2)NC(=O)N1 (stereo not drawn)
Reply: < 4.00

Query: Give the reported pIC50 for this compound. CC1=C(C(=O)Nc2ccc3[nH]ncc3c2)C(c2ccc(F)c(CC(=O)NCc3c(C)cccc3C)c2)NC(=O)N1 (stereo not drawn)
Reply: < 4.00
